# Assay Target: Pantothenate synthetase (Mycobacterium tuberculosis (strain ATCC 25618 / H37Rv)) (UniProt P9WIL5)
# Sequence (P9WIL5 whole entry, looked up): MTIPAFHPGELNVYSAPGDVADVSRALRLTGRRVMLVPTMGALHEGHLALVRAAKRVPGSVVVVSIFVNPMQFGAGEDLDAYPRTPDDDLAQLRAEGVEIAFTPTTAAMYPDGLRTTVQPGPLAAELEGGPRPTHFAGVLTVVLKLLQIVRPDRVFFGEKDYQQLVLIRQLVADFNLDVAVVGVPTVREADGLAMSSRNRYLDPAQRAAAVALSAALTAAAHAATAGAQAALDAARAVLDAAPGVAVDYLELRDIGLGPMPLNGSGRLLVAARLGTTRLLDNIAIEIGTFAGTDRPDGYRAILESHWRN
# Protocol Details: Coupled enzyme confirmation of inhibitors against recombinant Mtb PanC (AID 375)
# Condition Summary: coupled enzyme assay; at 10 µM, hits give high values
Rule: inhibition of 1% or more gives Fulfilled; anything lower gives Not fulfilled.

O=C(CSc1nccn1Cc1ccccc1)Nc1nccs1 :: Not fulfilled
COc1ccc(NC(=O)Cn2nnc(-c3ccccc3N)n2)cc1OC :: Not fulfilled
CN(C)S(=O)(=O)c1ccc(/C(O)=C2/C(=O)C(=O)N(CCN3CCCCC3)C2c2cccnc2)cc1 (stereo not given) :: Not fulfilled
Cn1c(=O)n(CCN2CCOCC2)c(=O)c2c1nc1n2CCN1c1ccccc1 :: Fulfilled
Cn1c(=O)n(C)c2cc(CNc3ccc(N4CCOCC4)c(C(=O)O)c3)ccc21 :: Fulfilled
COc1ccc(OC)c(C2C3=C(CCCC3=O)Nc3c2c(=O)n(C)c(=O)n3C)c1 (stereo not given) :: Not fulfilled
CC1CCc2nn(CC(=O)NCc3ccc(F)cc3)cc2C1 (stereo not given) :: Fulfilled
O=C(CSc1nc2ccsc2c(=O)n1NC(=O)c1ccccc1)Nc1nccs1 :: Not fulfilled
COc1cccc(C(=O)Nc2c(C(N)=O)oc3ccccc23)c1 :: Not fulfilled
COc1cccc(OC)c1OCCCSc1nc(C)cc(=O)[nH]1 :: Not fulfilled
Nn1c(SCC(=O)NC2CCCCC2)nnc1C1CC1 :: Not fulfilled
Cc1nnc(N(Cc2ccco2)C(=O)c2cccc(C#N)c2)s1 :: Fulfilled
COc1cccc(C2C(C(N)=O)=C(C)Nc3nc(-c4ccccc4Cl)nn32)c1 (stereo not given) :: Not fulfilled
COc1ccccc1NC(=O)CSc1nnc(-c2ccncc2)n1CC1CCCO1 (stereo not given) :: Not fulfilled
Cc1oncc1C(=O)Nc1ccc(C(F)(F)F)cc1 :: Fulfilled
CCOc1ccc(NC(=O)CSc2nc3cccnc3n2CC)cc1 :: Not fulfilled
COCCOC(=O)/C=C1/NC(=O)CS1 :: Not fulfilled
O=C(CCn1c(=O)sc2ccccc21)Nc1cccnc1 :: Fulfilled
COc1ccc(C(C)N2CC34C=CC(O3)C(C(=O)OCC(C)C)C4C2=O)cc1 (stereo not given) :: Fulfilled
C=CCn1c(Br)nc2c1c(=O)[nH]c(=O)n2C :: Not fulfilled
CCc1nnc(NC(=O)COC(=O)CN2C(=O)c3ccccc3C2=O)s1 :: Not fulfilled
Cc1csc2nc(CSc3nc4ccccc4o3)c(Br)n12 :: Not fulfilled
O=C(CCC(=O)N1CCc2ccccc2C1)N1CCN(S(=O)(=O)c2ccccc2)CC1 :: Not fulfilled
Oc1ccc(/C=C/c2cc(O)cc(O)c2)cc1 :: Not fulfilled
C=CCSC1=C(C#N)C(c2ccccc2Cl)CC(=O)N1 (stereo not given) :: Not fulfilled
Cc1c(NC(=O)C(C)OC(=O)C(NC(=O)c2ccco2)C(C)C)c(=O)n(-c2ccccc2)n1C (stereo not given) :: Fulfilled
CCCCN(C(=O)c1ccc(Cl)cc1)C1CC2CCC(C1)N2C (stereo not given) :: Not fulfilled
CC(C)Cc1nc2oc3c(N4CCN(CCO)CC4)ncnc3c2c2c1CCCC2 :: Not fulfilled
CCOC(=O)c1cc(C(C)(C)C)oc1CN :: Not fulfilled
CCCCC(=NCCO)C1=C(O)C(C(=O)OC)C(C)(C)CC1=O (stereo not given) :: Fulfilled
COc1ccccc1C(=O)n1nc(-c2ccccc2)nc1N :: Fulfilled
CN(Cc1ccccc1)Cc1nc2c(c(=O)n(C)c(=O)n2C)n1Cc1ccc(Cl)cc1 :: Not fulfilled
CCOC(=O)CSc1nc2ccccc2n1CC(=O)N1CCN(c2ccccc2)CC1 :: Not fulfilled
Cc1ccc(C)c(N2CCN(S(=O)(=O)c3ccc4c(c3)OCCO4)CC2)c1 :: Fulfilled
COc1ccc(CNc2oc(-c3ccccc3)nc2C#N)cc1 :: Fulfilled
O=C(COC(=O)c1cc(-c2ccco2)nc2ccccc12)NCc1ccc2c(c1)OCO2 :: Not fulfilled
N=c1c(C(=O)NCc2ccc3c(c2)OCO3)cc2c(=O)n3ccccc3nc2n1Cc1cccnc1 :: Fulfilled
C=CCN(CC=C)C(=O)CN1C(=O)c2ccccc2C1=O :: Not fulfilled
Cc1ccc2nc(SCC(=O)NCc3ccco3)c(C#N)cc2c1 :: Not fulfilled
Cc1ccc(O)c(CN2CCN(c3ccccc3)CC2)c1 :: Fulfilled
CCOC(=O)COc1ccc(S(=O)(=O)N2CCc3ccccc3C2)cc1 :: Not fulfilled
Cc1occc1-c1nnc(SCC(=O)NCC2CCCO2)n1C (stereo not given) :: Fulfilled
CCn1c(=O)cc(SCC(=O)N2CCOCC2)c2ccccc21 :: Fulfilled
